- System: Plasmodium falciparum
- assay.overview: NOVARTIS: Inhibition of Plasmodium falciparum 3D7 (drug-susceptible) proliferation in erythrocyte-based infection assay
- Type: functional, organism-based
- particulars: Plasmodium falciparum, 3D7
readout.type: pEC50
pEC50 is a log-scale quantity: -log10 of the concentration expressed in molar.

Some solved entries appear below for comparison.
{"columns": ["compound", "val"],
 "data": [
  ["CCOC(=O)C1=C(c2ccccc2)N=c2sc(=Cc3ccccc3O)c(=O)n2C1c1c(OC)ccc2ccccc12 (stereo not given)", 5.64],
  ["FC(F)(F)c1cnc(Sc2nnc(-c3ccncc3)o2)c(Cl)c1", 5.73],
  ["COc1cc(NC(C)CCCN(Cc2ccc(OC)c(OC)c2)C(=O)Nc2cccc(Cl)c2Cl)c2ncccc2c1 (stereo not given)", 6.16]
]}

# input Which value of pEC50 has been reported for CC(=O)N(C1=C(N(C)C)C(=O)c2ccccc2C1=O)c1ccc(F)c(F)c1 in the records?
# output 7.79

* * *

- assay.overview: NOVARTIS: Cytotoxicity against human hepatocellular carcinoma cell line (Huh7)
- Type: toxicity, cell-based, Huh-7
- particulars: Huh7 cells (hepatocellular carcinoma cell line)
readout.type: CC50

In the examples that follow, each entry is paired with its recorded CC50.
{"columns": ["compound", "readout.type", "val"],
 "data": [
  ["CCCc1nc2ccc(NC(=O)NCC)cc2c(=O)n1Cc1ccc(-c2ccccc2)cc1", "CC50", "> 100 µM"],
  ["COc1cc(OC)cc(C(=O)N(CCCC(C)Nc2cc(OC)cc3cccnc23)Cc2ccc(Cl)cc2)c1 (stereo not given)", "CC50", "9.86 µM"],
  ["O=C(C1CC1)N1CCc2cc(Br)cc(S(=O)(=O)N3CCCCC3)c21", "CC50", "> 100 µM"],
  ["CC[n+]1c(C=C2C=C(C)OC(C)=C2)sc2ccccc21", "CC50", "> 32 µM"]
]}

Moving on to the next compound.
# input Sample COc1ccc(-c2csc(Nc3ccc(O)cc3)n2)cc1OC — what was its CC50?
# output > 100 µM

* * *

- Tested on: Plasmodium falciparum
- assay.overview: NOVARTIS: Inhibition of Plasmodium falciparum 3D7 (drug-susceptible) proliferation in erythrocyte-based infection assay
- Format: functional, organism-based
- particulars: Plasmodium falciparum, 3D7
Dear colleague, classification is by EC50, with ranges listed here: low interval: < 200 nM; middle interval: ≥ 200 nM and < 700 nM; high interval: ≥ 700 nM

{"columns": ["molecule", "assigned.category"],
 "data": [
  ["CN1C2CCC1C(=Cc1ccsc1)C(=O)C2=Cc1ccsc1", "middle interval"],
  ["COc1ccc(CCN(C(=S)Nc2ccccc2)C2CC(=O)N(c3ccc(F)cc3)C2=O)cc1OC (stereo not drawn)", "high interval"],
  ["COc1ccccc1C(=O)ON=C(N)Cc1cccc2ccccc12", "middle interval"],
  ["CCN1CCN(Cc2ccc(N(CC)CC)cc2)CC1", "high interval"],
  ["CCc1ccc(C=NNC(=O)COc2ccc3c(c2)OCO3)cc1", "high interval"]
]}

Read the next record carefully.
# input The entry to classify is COc1ccc2[nH]c3c(NCCN4CCCCC4)ncnc3c2c1 ; which class holds it?
# output high interval

* * *

Listed here: items and their measured CC50.
- assay.overview: NOVARTIS: Cytotoxicity against human hepatocellular carcinoma cell line (Huh7)
- Type: toxicity, cell-based, Huh-7
- particulars: Huh7 cells (hepatocellular carcinoma cell line)

# input Item under review: O=C(NC(c1ccccc1)c1ccc2cccnc2c1O)c1ccccc1 (stereo unspecified) . Reported CC50?
# output > 100 µM

* * *

Examples of compounds with documented CC50 follow.
- assay.overview: NOVARTIS: Cytotoxicity against human hepatocellular carcinoma cell line (Huh7)
- Assay type: toxicity, cell-based, Huh-7
- particulars: Huh7 cells (hepatocellular carcinoma cell line)

Worked set:
{"columns": ["compound", "CC50"],
 "data": [
  ["Nc1ncc(Br)cc1S(=O)(=O)NCCC(=O)N1CC=C(c2ccccc2)CC1", "48.9 µM"],
  ["COC(C)(C)CNCc1cc2cc3c(cc2n(Cc2cccc(C(F)(F)F)c2)c1=O)CCC3", "> 10 µM"],
  ["COc1ccc(C2(CNCC(O)c3cccc([N+](=O)[O-])c3)CCCC2)cc1OC (configuration not stated)", "> 100 µM"],
  ["CCC1=NN2C(=N)/C(=C/c3cn(CCOc4cccc(C)c4)c4ccccc34)C(=O)N=C2S1", "> 10 µM"],
  ["COc1cccc(C2Sc3ccccc3NC3=C2C(=O)c2ccccc23)c1 (configuration not stated)", "> 100 µM"]
]}

# input Name the recorded CC50 for CCOC(=O)c1c(NC(=O)c2cccnc2)sc(C)c1CC .
# output > 10 µM

# input Now consider CC(=O)NC1=NN(C(C)=O)C(c2ccc(Br)cc2)S1 (configuration not stated) .
# output > 100 µM

# input Repeat for the following compound: O=c1sc(=NCC(O)c2ccc(Cl)c(Cl)c2)[nH]c2ccccc12 (configuration not stated)
# output > 10 µM

* * *

- assay.overview: NOVARTIS: Cytotoxicity against human hepatocellular carcinoma cell line (Huh7)
- Format: toxicity, cell-based, Huh-7
- particulars: Huh7 cells (hepatocellular carcinoma cell line)
readout.type: CC50

Recorded results for 6 compounds are shown here.
{"columns": ["compound", "CC50"],
 "data": [
  ["CCOC(=O)C1CCN(C(=O)C(=O)Nc2ccc3nc4n(c(=O)c3c2)CCCCC4)CC1", "> 100 µM"],
  ["CC[n+]1cccc2ccc3cccnc3c21", "> 100 µM"],
  ["Cc1ccc(-c2cc(C(F)(F)F)n3ncc(C(=O)Nc4cc(Cl)ccc4O)c3n2)cc1", "> 100 µM"],
  ["O=C(Nc1c2ccccc2nc2ccccc12)c1cc(Cl)ccc1O", "> 100 µM"],
  ["O=C(Nc1cc(C(F)(F)F)cc(C(F)(F)F)c1)Nc1ccc2nnsc2c1", "19.4 µM"],
  ["O=C(Nc1ccc(Cl)cc1)c1c2c(nc3ccccc13)-c1ccccc1CC2", "> 100 µM"]
]}

# input # lookup: CC50 of O=c1c(=Cc2ccc(-c3ccc([N+](=O)[O-])cc3Cl)o2)sc2nc3ccccc3n12
# output > 10 µM

# input Also, CC1=C(CCN(CCCN(C)C)CCCN(C)C)C(C)(C)CCC1 please.
# output 7.66 µM

# input Consider next the compound COc1ccc(Cl)cc1-n1c(-c2cccnc2)n[nH]c1=S in the same way.
# output > 10 µM

# input Same thing, different compound: COc1ccc(C2c3[nH]c4ccccc4c3C[C@H]3C(=O)N(CCC(C)C)CC(=O)N23)cc1 (stereo not given in full)
# output > 100 µM

* * *

A collection of molecules and their measured CC50
- assay.overview: NOVARTIS: Cytotoxicity against human hepatocellular carcinoma cell line (Huh7)
- Assay type: toxicity, cell-based, Huh-7
- particulars: Huh7 cells (hepatocellular carcinoma cell line)

These recorded examples may help you get a feel for the data.
{"columns": ["molecule", "CC50"],
 "data": [
  ["O=[N+]([O-])c1ccc(S(=O)(=O)N2CCN(C(=S)NCCc3ccccc3)CC2)cc1", "> 100 µM"],
  ["O=C(Nc1ccc(Oc2ccccc2)cc1)NC(CN1CCCC1)c1ccccc1 (stereo unspecified)", "13.6 µM"]
]}

# input # query: CC50 of entry C[n+]1ccccc1/C=C/C1=C(c2ccccc2)Oc2ccccc2O1
# output 14.9 µM

# input Cool, now C[n+]1ccc(/C=C/c2ccc(Br)cc2)cc1
# output > 10 µM

# input Then COc1ccc(-c2c[n+](CC(=O)c3ccccc3Cl)c3n2CCC3)cc1 ?
# output > 100 µM

# input What about this molecule? CCN(CC)C(=O)CSc1nnc(-c2ccccn2)n1-c1ccc(OC)cc1
# output 3.19 µM

# input Same thing, different molecule: CC1CC2CCC(O2)C(C)C(=O)O[C@H](C)CC2CCC(O2)C(C)C(=O)OC(C)CC2CCC(O2)C(C)C(=O)O[C@H](C)CC2CCC(O2)C(C)C(=O)O1 (stereo partly specified)
# output > 6.25 µM

* * *

- assay.overview: NOVARTIS: Cytotoxicity against human hepatocellular carcinoma cell line (Huh7)
- Assay type: toxicity, cell-based, Huh-7
- particulars: Huh7 cells (hepatocellular carcinoma cell line)
Numbered stars: 1 amine (or outer) side, 2 acyl side, 3 side chain; on linkers, the order of the positions; unused ones are H or OH. Bridge positions count the residues as written; N and C are the ends. Square brackets hold non-standard residues; d marks the D form. Peptide text beside a SMILES is read from it. I, II: the chains in the order shown. ξ: configuration not given here. Actinocin(9to1) = Cc1c2oc3c(C)ccc(C(=O)[*:1])c3nc-2c(C(=O)[*:2])c(N)c1=O; ξNMeV = CNC(C(=O)O)C(C)C; ξT = CC(O)C(N)C(=O)O; ξP = O=C(O)C1CCCN1; Sar = CNCC(=O)O
Entries and their CC50 values follow.

For orientation, consider the following solved cases.
{"columns": ["molecule", "CC50"],
 "data": [
  ["COC(=O)C1CCCCN1S(=O)(=O)c1ccc(C)cc1 (centres undefined)", "> 10 µM"],
  ["CCN1/C(=C/c2sc3ccc(Br)cc3[n+]2CC)C=Cc2ccccc21", "> 10 µM"],
  ["Cn1c(NN=Cc2ccccc2)cc(=O)n(C)c1=O", "> 10 µM"],
  ["CC(C)CNc1nc(NCCCN)ncc1C(=O)NCCc1ccccc1", "> 10 µM"],
  ["FC(F)(F)c1cccc(Nc2nc3nonc3nc2Nc2ccc(Cl)cc2)c1", "> 10 µM"],
  ["Cc1ccn2c(NC(C)(C)CC(C)(C)C)c(-c3ccccc3OC(=O)N(C)C)nc2c1", "> 10 µM"]
]}

# input Look up CC50: Cc1c2oc3c(C)ccc(C(=O)NC4C(=O)N[C@@H](C(C)C)C(=O)N5CCCC5C(=O)N(C)CC(=O)N(C)C(C(C)C)C(=O)OC4C)c3nc-2c(C(=O)NC2C(=O)N[C@H](C(C)C)C(=O)N3CCCC3C(=O)N(C)CC(=O)N(C)C(C(C)C)C(=O)OC2C)c(N)c1=O (some centres undefined) (I: [ξT]V[ξP][Sar][ξNMeV] / II: [ξT][dV][ξP][Sar][ξNMeV]; ester I:1-I:C, II:1-II:C; linker I:N-II:N via Actinocin(9to1))
# output 0.296 µM

# input Next record, please: COc1cc(NC(=O)Cn2c3ccccc3c(=O)c3ccccc32)cc(OC)c1OC
# output > 100 µM

# input Param item: O=C(NN=Cc1cc2ccccc2cc1O)c1cccnc1
# output > 10 µM
